# Subject Of Test: Protein cereblon/Heat shock protein HSP 90-alpha/Heat shock protein HSP 90-beta (Homo sapiens) (UniProt P07900+P08238+Q96SW2)
# Experiment Summary: Protac activity at CRBN/Hsp90 in human SiHa cells assessed as induction of Hsp90 degradation at 1 uM incubated for 10 hrs by Western blot analysis
# Type: cell-based
Calls of active or inactive are those of the source. The rule behind the calls is not given here.
Answer with one of the outcomes given here: 1 (yes) for active, 0 (no) for inactive

Observe how each entry below is paired with its result.
Molecule	Discrete Label
CC1(C)CC(=O)c2c(C(F)(F)F)nn(-c3ccc(C(N)=O)c(N[C@H]4CC[C@H](NCCCCCCCCCC(=O)Nc5cccc6c5CN(C5CCC(=O)NC5=O)C6=O)CC4)c3)c2C1 (stereo partly drawn)	0 (no)
CC1(C)CC(=O)c2c(C(F)(F)F)nn(-c3ccc(C(N)=O)c(N[C@H]4CC[C@H](OC(=O)CNC(=O)CCCCCCNc5cccc6c5CN(C5CCC(=O)NC5=O)C6=O)CC4)c3)c2C1 (stereo partly drawn)	1 (yes)

Now take the following molecule into account.
Which result was noted for this molecule in the test: CC1(C)CC(=O)c2c(C(F)(F)F)nn(-c3ccc(C(N)=O)c(N[C@H]4CC[C@H](OC(=O)CNC(=O)CCCCCCCNc5cccc6c5CN(C5CCC(=O)NC5=O)C6=O)CC4)c3)c2C1 (stereo partly drawn)
1 (yes)

---

# Subject Of Test: Protein cereblon/Heat shock protein HSP 90-alpha/Heat shock protein HSP 90-beta (Homo sapiens) (UniProt P07900+P08238+Q96SW2)
# Experiment Summary: Protac activity at CRBN/Hsp90 in human SiHa cells assessed as induction of Hsp90 degradation at 1 uM incubated for 10 hrs by Western blot analysis
# Assay type: cell-based
Active and inactive are the calls of the source. The rule behind the calls is not given here.

Molecule	Activity
CC1(C)CC(=O)c2c(C(F)(F)F)nn(-c3ccc(C(N)=O)c(NCCCNC(=O)CCCCCCCCCCNc4cccc5c4CN(C4CCC(=O)NC4=O)C5=O)c3)c2C1 (stereo not drawn)	inactive
CC1(C)CC(=O)c2c(C(F)(F)F)nn(-c3ccc(C(N)=O)c(NCCCNC(=O)CCCCCNc4cccc5c4CN(C4CCC(=O)NC4=O)C5=O)c3)c2C1 (stereo not drawn)	inactive
CC1(C)CC(=O)c2c(C(F)(F)F)nn(-c3ccc(C(N)=O)c(NCCCNC(=O)COCCOCCNc4cccc5c4CN(C4CCC(=O)NC4=O)C5=O)c3)c2C1 (stereo not drawn)	inactive

---

# Subject Of Test: Protein cereblon/Heat shock protein HSP 90-alpha/Heat shock protein HSP 90-beta (Homo sapiens) (UniProt P07900+P08238+Q96SW2)
# Experiment Summary: Protac activity at CRBN/Hsp90 in human SiHa cells assessed as induction of Hsp90 degradation at 1 uM incubated for 10 hrs by Western blot analysis
# Assay type: cell-based
Calls of active or inactive are those of the source. The rule behind the calls is not given here.
Measurement Kind: Activity

Compound	Activity
CC1(C)CC(=O)c2c(C(F)(F)F)nn(-c3ccc(C(N)=O)c(NCCCNC(=O)CCCCCCCCCNc4cccc5c4CN(C4CCC(=O)NC4=O)C5=O)c3)c2C1 (configuration not stated)	inactive
CC1(C)CC(=O)c2c(C(F)(F)F)nn(-c3ccc(C(N)=O)c(N[C@H]4CC[C@H](OC(=O)CNC(=O)CCCCCNc5cccc6c5CN(C5CCC(=O)NC5=O)C6=O)CC4)c3)c2C1 (some centres not stated)	Active
CC1(C)CC(=O)c2c(C(F)(F)F)nn(-c3ccc(C(N)=O)c(N[C@H]4CC[C@H](OC(=O)CNC(=O)CCCNc5cccc6c5CN(C5CCC(=O)NC5=O)C6=O)CC4)c3)c2C1 (some centres not stated)	Active
CC1(C)CC(=O)c2c(C(F)(F)F)nn(-c3ccc(C(N)=O)c(N[C@H]4CC[C@H](NC(=O)CCCCCCCCCNc5cccc6c5CN(C5CCC(=O)NC5=O)C6=O)CC4)c3)c2C1 (some centres not stated)	inactive
CC1(C)CC(=O)c2c(C(F)(F)F)nn(-c3ccc(C(N)=O)c(N[C@H]4CC[C@H](OC(=O)CNC(=O)COCCOCCNc5cccc6c5C(=O)N(C5CCC(=O)NC5=O)C6=O)CC4)c3)c2C1 (some centres not stated)	inactive

Specify reported Activity for the compound shown: CC1(C)CC(=O)c2c(C(F)(F)F)nn(-c3ccc(C(N)=O)c(N[C@H]4CC[C@H](NC(=O)CNC(=O)CCCCCCCCCNc5cccc6c5CN(C5CCC(=O)NC5=O)C6=O)CC4)c3)c2C1 (some centres not stated)
inactive

Specify reported Activity for the compound shown: CC1(C)CC(=O)c2c(C(F)(F)F)nn(-c3ccc(C(N)=O)c(NCCCNC(=O)CCCCCCCNc4cccc5c4CN(C4CCC(=O)NC4=O)C5=O)c3)c2C1 (configuration not stated)
inactive
